Recorded measurements of Ki, one per entry
# target or system: LHRH receptors (Rattus norvegicus, UniProt P30969)
# Construct: Pituitary membranes containing LHRH receptors are prepared in batches from quick-frozen rat pituitaries; tissue Hilltop Labs; host or cells: rat pituitary membranes
# Sequence (P30969 whole entry): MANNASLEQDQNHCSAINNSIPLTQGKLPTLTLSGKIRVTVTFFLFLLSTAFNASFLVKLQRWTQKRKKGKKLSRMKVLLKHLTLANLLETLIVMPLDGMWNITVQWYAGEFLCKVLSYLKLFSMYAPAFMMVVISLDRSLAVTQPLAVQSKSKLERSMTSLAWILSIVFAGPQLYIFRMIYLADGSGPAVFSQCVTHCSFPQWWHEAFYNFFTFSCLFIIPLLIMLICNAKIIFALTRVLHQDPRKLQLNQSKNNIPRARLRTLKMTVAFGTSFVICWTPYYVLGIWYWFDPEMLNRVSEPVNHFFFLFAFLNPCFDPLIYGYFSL
# method notes: Receptor Binding (radioligand receptor binding assay)
# test context: table 4; rat pituitary membranes, radioligand 50 pM, 2 hours at 4° C.; read-out: Receptor Binding pkI (converted)
Square brackets hold non-standard residues; d marks the D form. Peptide text beside a SMILES is read from it. * marks the point of attachment. Propanoyl(3-(4-F-phenyl)) = O=C(CCc1ccc(F)cc1)*; NMeY = CN[C@@H](Cc1ccc(O)cc1)C(=O)O; d3Pal = N[C@H](Cc1cccnc1)C(=O)O; Nicotinoyl = O=C(c1cccnc1)*

Study these solved cases before continuing.
compound	Ki
CCNC(=O)[C@@H]1CCCN1C(=O)[C@H](CCCNC(=N)N)NC(=O)[C@H](CC(C)C)NC(=O)[C@@H](Cc1c[nH]c2ccccc12)NC(=O)[C@H](Cc1ccc(O)cc1)NC(=O)[C@H](CO)NC(=O)[C@@H]1CCCN1C(=O)CCc1ccc(F)cc1 [Compound 148] ({Propanoyl(3-(4-F-phenyl))}-PSY[dW]LRP-NHEt)	0.055 nM
CC(C)C[C@H](NC(=O)[C@@H](CCCCNC(=O)c1cccnc1)NC(=O)[C@H](Cc1ccc(O)cc1)N(C)C(=O)[C@H](CO)NC(=O)[C@@H](Cc1cccnc1)NC(=O)CCc1ccc(F)cc1)C(=O)N[C@@H](CCCNC(=N)N)C(=O)N1CCC[C@H]1C(=O)N[C@H](C)C(N)=O [Compound 171] ({Propanoyl(3-(4-F-phenyl))}-[d3Pal]S[NMeY][dK](Nicotinoyl)LRP[dA]-NH2)	0.0676 nM

For this compound ( CC(C)C[C@H](NC(=O)[C@@H](CCCCN)NC(=O)[C@H](Cc1ccc(O)cc1)N(C)C(=O)[C@H](CO)NC(=O)[C@@H](Cc1c[nH]c2ccccc12)NC(=O)CCc1ccc(F)cc1)C(=O)N[C@@H](CCCNC(=N)N)C(=O)N1CCC[C@H]1C(=O)N[C@H](C)C(N)=O [Compound 173] ({Propanoyl(3-(4-F-phenyl))}-[dW]S[NMeY][dK]LRP[dA]-NH2) ), measured Ki is 0.00575 nM
